- assay-system: 14-3-3-FC complex (tobacco 14-3-3c saturated with fusicoccin) (Nicotiana tabacum (tobacco))
- method-summary: isothermal titration calorimetry, […]
endpoint-label: pKd
// scale note: pKd = -log10(conc_M); give the bare number

Which pKd is reported for this substance? phosphopeptide Gln-Ser-Tyr-pThr-Val (QSYpTV), C-terminal end of PMA2, a H+-ATPase isoform from N. plumbaginifolia
7.57

###

- assay-system: Tobacco 14-3-3c (Gene bank AAC49892, amino acids 1-260 with an N-terminal His-tag) (Nicotiana tabacum (tobacco))
- method-summary: ITC; phosphopeptide (0.5 mM) titrated into 14-3-3c (0.05 mM), 25 mM HEPES pH 6.5, 35 °C, single-site fit; peptide to unliganded 14-3-3c, no fusicoccin; ITC, pH 6.5, 35 C
endpoint-label: Kd

Query (substance): phosphopeptide Gln-Ser-Tyr-pThr-Val (QSYpTV), C-terminal end of PMA2, a H+-ATPase isoform from N. plumbaginifolia ; field requested: Kd
2.5 µM
